- system.under.test: RecQ E. coli (Escherichia coli) (UniProt P15043)
- Sequence (P15043 whole entry): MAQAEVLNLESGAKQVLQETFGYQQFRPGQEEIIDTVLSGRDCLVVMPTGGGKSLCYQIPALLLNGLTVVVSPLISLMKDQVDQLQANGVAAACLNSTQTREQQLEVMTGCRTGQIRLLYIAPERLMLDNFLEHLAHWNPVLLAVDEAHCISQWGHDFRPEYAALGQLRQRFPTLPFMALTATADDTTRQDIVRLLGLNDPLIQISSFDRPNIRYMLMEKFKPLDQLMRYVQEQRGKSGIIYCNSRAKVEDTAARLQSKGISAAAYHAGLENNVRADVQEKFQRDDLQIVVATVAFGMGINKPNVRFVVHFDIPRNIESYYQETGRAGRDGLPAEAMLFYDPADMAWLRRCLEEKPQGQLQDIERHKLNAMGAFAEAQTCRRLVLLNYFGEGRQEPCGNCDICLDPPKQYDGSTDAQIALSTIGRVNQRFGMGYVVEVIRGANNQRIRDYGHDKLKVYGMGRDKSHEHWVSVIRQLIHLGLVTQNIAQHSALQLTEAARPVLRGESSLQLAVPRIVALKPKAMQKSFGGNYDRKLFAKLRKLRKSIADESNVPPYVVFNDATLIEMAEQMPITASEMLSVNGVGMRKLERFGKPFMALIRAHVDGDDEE
- method: fluorescence anisotropy
- particulars: 50 mM Tris-HCl pH 8.0, 50 mM NaCl, 1 mM DTT, 25 C; 200 nM protein, 5 nM 3'-fluorescein DNA
pIC50: −log10 of the molar value.
measurement.type: pIC50

input_sequence="GCCCTGCTGCCGACCAACGAAGGT (double strand) [F-24 ds]" system_under_test="RecQ E. coli (Escherichia coli) (UniProt P15043)" value_observed=4.36

----------
- system.under.test: BLM full-length (human) (UniProt P54132)
- Sequence (P54132 whole entry): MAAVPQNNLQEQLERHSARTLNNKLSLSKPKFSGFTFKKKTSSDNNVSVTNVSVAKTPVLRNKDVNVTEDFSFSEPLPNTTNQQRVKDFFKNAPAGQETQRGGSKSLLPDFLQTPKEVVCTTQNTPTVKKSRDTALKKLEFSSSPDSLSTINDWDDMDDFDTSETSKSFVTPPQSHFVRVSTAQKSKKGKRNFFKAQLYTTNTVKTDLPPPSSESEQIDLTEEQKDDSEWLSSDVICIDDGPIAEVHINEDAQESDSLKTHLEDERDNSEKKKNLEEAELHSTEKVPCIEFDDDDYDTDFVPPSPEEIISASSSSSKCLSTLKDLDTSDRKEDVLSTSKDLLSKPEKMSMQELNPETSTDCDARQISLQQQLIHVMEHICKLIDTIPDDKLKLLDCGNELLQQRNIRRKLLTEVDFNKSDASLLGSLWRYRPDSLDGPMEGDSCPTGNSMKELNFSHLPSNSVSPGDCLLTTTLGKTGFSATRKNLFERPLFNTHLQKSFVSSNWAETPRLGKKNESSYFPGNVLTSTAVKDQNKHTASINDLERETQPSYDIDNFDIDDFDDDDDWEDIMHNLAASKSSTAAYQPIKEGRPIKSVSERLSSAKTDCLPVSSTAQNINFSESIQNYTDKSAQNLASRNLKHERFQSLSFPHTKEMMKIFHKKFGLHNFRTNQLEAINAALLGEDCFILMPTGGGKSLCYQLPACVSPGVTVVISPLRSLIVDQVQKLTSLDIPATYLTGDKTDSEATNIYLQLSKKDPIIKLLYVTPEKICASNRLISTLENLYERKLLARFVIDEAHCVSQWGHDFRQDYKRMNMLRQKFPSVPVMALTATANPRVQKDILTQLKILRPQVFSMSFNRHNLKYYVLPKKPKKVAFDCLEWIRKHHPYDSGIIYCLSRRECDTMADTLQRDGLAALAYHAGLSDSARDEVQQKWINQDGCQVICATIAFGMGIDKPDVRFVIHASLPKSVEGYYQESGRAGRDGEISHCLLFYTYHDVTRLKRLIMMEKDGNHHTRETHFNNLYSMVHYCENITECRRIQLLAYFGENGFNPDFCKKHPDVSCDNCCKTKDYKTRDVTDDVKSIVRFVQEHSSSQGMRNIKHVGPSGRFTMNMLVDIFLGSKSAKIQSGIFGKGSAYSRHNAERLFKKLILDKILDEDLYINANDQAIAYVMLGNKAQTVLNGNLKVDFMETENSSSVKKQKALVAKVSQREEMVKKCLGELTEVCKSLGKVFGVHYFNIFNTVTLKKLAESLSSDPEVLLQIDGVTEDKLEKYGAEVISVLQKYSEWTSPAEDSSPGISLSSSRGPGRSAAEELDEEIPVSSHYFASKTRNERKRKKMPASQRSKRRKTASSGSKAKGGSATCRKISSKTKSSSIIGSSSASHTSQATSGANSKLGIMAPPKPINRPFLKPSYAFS
- method: fluorescence anisotropy
- particulars: 50 mM Tris-HCl pH 8.0, 50 mM NaCl, 1 mM DTT, 25 C; 200 nM protein, 5 nM 3'-fluorescein DNA
pIC50: −log10 of the molar value.
measurement.type: pIC50

input_sequence="GCCCTGCTGCCGACCAACGAAGGT (double strand) [F-24 ds]" measurement_type=pIC50 value_observed=5.16
